- Tested on: p-IKKa levels in L363 (NIK translocated multiple myeloma) cells
- Assay: Effect of compounds on p-IKKa levels in L363 (NIK translocated multiple myeloma) cells (AlphaLISA SureFire Ultra p-IKKa Ser176/180)
- Format: cell-based, human
- Condition context: Homo sapiens, L-363, p-IKKa levels in L363 cells; average if tested more than once; read-out: Assay 2 IC50
pIC50: −log10 of the molar value.
# pIC50 listing for each entry below
Assay readout: pIC50

[[record]]
compound = "CN1CC[C@@](O)(c2cccc(-c3nc(-c4ccnc(NCC5(O)CC5)n4)cs3)c2)C1=O [Example 240]"
assay_readout = "pIC50"
value = "< 6.30"

[[record]]
compound = "CN1CC[C@@](O)(c2cccc(-c3nc(-c4ccnc(Nc5cnn(C)c5)n4)cs3)c2)C1=O [Example 177]"
assay_readout = "pIC50"
value = "> 7.00"

[[record]]
compound = "C[C@H](Nc1nccc(-c2csc(-c3cccc([C@]4(O)CCN(C)C4=O)c3)n2)n1)c1ccccn1 [Example 186]"
assay_readout = "pIC50"
value = "< 6.30"

[[record]]
compound = "CN1CCC(O)(c2cc(C#N)cc(-c3csc(-c4ccnc(Nc5ccn(C)n5)n4)n3)c2)C1=O (single isomer, unassigned) [Example 57]"
assay_readout = "pIC50"
value = "< 6.30"

[[record]]
compound = "Cc1ccc(CNc2nccc(-c3csc(-c4cccc([C@]5(O)CCN(C)C5=O)c4)n3)n2)nc1 [Example 203]"
assay_readout = "pIC50"
value = "< 6.30"

[[record]]
compound = "CN1CC[C@@](O)(c2cncc(-c3csc(-c4ccnc(Nc5cnn(C)c5)n4)n3)c2)C1=O (single isomer, unassigned) [Example 152]"
assay_readout = "pIC50"
value = "6.30 to 7.00"

[[record]]
compound = "CC(Nc1nccc(-c2csc(-c3cccc([C@]4(O)CCN(C)C4=O)c3)n2)n1)c1ncccn1 (some centres unmarked) [Example 207]"
assay_readout = "pIC50"
value = "< 6.30"

[[record]]
compound = "C[C@@H](Nc1nccc(-c2csc(-c3cccc([C@]4(O)CCN(C)C4=O)c3)n2)n1)c1ccccn1 [Example 185]"
assay_readout = "pIC50"
value = "< 6.30"

[[record]]
compound = "CN1CC[C@@](O)(c2ccnc(-c3ccn(-c4ccnc(Nc5cnn6cccnc56)n4)n3)c2)C1=O (single isomer, unassigned) [Example 149]"
assay_readout = "pIC50"
value = "< 6.30"

[[record]]
compound = "CN1CC[C@@](O)(c2cccc(-c3nc(-c4ccnc(Nc5ccn(C(C)(C)C)n5)n4)cs3)c2)C1=O [Example 285]"
assay_readout = "pIC50"
value = "6.30 to 7.00"

[[record]]
compound = "CN1CC[C@@](O)(c2cccc(-c3nc(-c4ccnc(NCc5cnn(C)c5)n4)cs3)c2)C1=O [Example 183]"
assay_readout = "pIC50"
value = "< 6.30"

[[record]]
compound = "CN1CC[C@@](O)(c2cccc(-c3nc(-c4ccnc(Nc5ccn(CC(F)(F)F)n5)n4)cs3)c2)C1=O [Example 75]"
assay_readout = "pIC50"
value = "6.30 to 7.00"

[[record]]
compound = "C[C@@H](Nc1nccc(-c2csc(-c3cccc([C@]4(O)CCN(C)C4=O)c3)n2)n1)c1cncn1C (single isomer, unassigned) [Example 134]"
assay_readout = "pIC50"
value = "< 6.30"

[[record]]
compound = "C[C@@H](Nc1nccc(-c2nc(-c3cccc([C@]4(O)CCN(C)C4=O)c3)cs2)n1)c1ccnn1C (single isomer, unassigned) [Example 127]"
assay_readout = "pIC50"
value = "6.30 to 7.00"


// data source = patent US20250304567A1
